target-of-assay: Kappa-type opioid receptor (Homo sapiens, UniProt P41145)
Sequence (P41145 whole entry): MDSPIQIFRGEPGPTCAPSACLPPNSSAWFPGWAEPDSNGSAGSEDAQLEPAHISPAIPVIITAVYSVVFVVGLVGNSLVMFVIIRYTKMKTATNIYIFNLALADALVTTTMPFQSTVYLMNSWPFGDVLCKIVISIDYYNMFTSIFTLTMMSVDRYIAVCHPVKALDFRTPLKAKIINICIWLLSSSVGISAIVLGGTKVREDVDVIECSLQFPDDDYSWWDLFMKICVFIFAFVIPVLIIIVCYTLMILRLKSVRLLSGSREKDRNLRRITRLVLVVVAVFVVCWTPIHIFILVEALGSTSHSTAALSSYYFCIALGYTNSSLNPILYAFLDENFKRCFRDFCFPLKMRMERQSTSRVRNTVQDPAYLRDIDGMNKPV
reported-property: Ki (nM)
Numbers only, in nM.

Worked examples, 3 molecules total:
{"molecule": "CN(C(=O)CNC(=O)c1ccccc1)[C@H](CN1CCCC1)c1ccccc1", "reported-property": "Ki", "measure-unit": "nM", "measurement": 6.7}
{"molecule": "CN(C(=O)CNC(=O)c1ccc2c(c1)no[n+]2[O-])[C@H](CN1CCCC1)c1ccccc1", "reported-property": "Ki", "measure-unit": "nM", "measurement": 4.6}
{"molecule": "CN(C(=O)C(NC=O)c1ccccc1)[C@H](CN1CCCC1)c1ccccc1 (mixture of isomers)", "reported-property": "Ki", "measure-unit": "nM", "measurement": 258}

Respectfully, I request Ki for each entry included below.
1. CN(CC(=O)N(C)[C@H](CN1CC[C@@H](O)C1)c1ccccc1)C(=O)c1ccc(Cl)c(Cl)c1
2. COC(=O)N[C@H](C(=O)N(C)[C@H](CN1CCCC1)c1ccccc1)c1ccccc1
3. CN(C(=O)[C@H](NC(=O)OCc1ccccc1)c1ccccc1)[C@H](CN1CCCC1)c1ccccc1

[20, 178, 856]

---

These records show pKi for Kappa-type opioid receptor (Homo sapiens, UniProt P41145).
One number for each entry, as −log10 of the molar value.

Consider the following illustrative entries.
{"substance-smiles": "COc1ccccc1C(=O)NCC(=O)N(C)[C@H](CN1CC[C@@H](O)C1)c1ccccc1", "target-of-assay": "Kappa-type opioid receptor (Homo sapiens, UniProt P41145)", "pKi": 8.70}
{"substance-smiles": "CN(C(=O)CNC(=O)OCc1ccccc1)[C@H](CN1CCCC1)c1ccccc1", "target-of-assay": "Kappa-type opioid receptor (Homo sapiens, UniProt P41145)", "pKi": 7.08}
{"substance-smiles": "CN(C(=O)CNC(=O)Cc1ccccc1)[C@H](CN1CCCC1)c1ccccc1", "target-of-assay": "Kappa-type opioid receptor (Homo sapiens, UniProt P41145)", "pKi": 7.79}
{"substance-smiles": "CN(C(=O)[C@@H](NC(=O)OCc1ccccc1)c1ccccc1)[C@H](CN1CCCC1)c1ccccc1", "target-of-assay": "Kappa-type opioid receptor (Homo sapiens, UniProt P41145)", "pKi": 6.86}
{"substance-smiles": "CN(C(=O)CNC(=O)c1ccc(Cl)c(Cl)c1)[C@H](CN1CC[C@@H](O)C1)c1ccccc1", "target-of-assay": "Kappa-type opioid receptor (Homo sapiens, UniProt P41145)", "pKi": 9.08}

Look up pKi for the entries below, preserving their order.
1. CN(C(=O)[C@@H](NC(=O)c1ccccc1)c1ccccc1)[C@H](CN1CCCC1)c1ccccc1
2. CN(C(=O)CNC(=O)c1ccc(Cl)c(Cl)c1)[C@H](CN1CCCC1)c1ccccc1
3. CN(C(=O)[C@H](Cc1ccccc1)NC(=O)OCc1ccccc1)[C@H](CN1CCCC1)c1ccccc1
4. COc1ccc(C(=O)NCC(=O)N(C)[C@H](CN2CC[C@@H](O)C2)c2ccccc2)cc1

7.00
8.44
6.82
7.32

---

target-of-assay: Kappa-type opioid receptor (Homo sapiens)
assay-method-text: In vitro effective concentration towards human kappa opioid receptor was determined using [35S]-GTP-gamma S as radioligand; Not determined
Assignment: determine reported EC50 for the given molecules.
# do not omit the unit; it follows the number

Below, 3 molecules whose answers are already recorded.
{"substance-smiles": "CN(C(=O)CNC(=O)c1ccc2c(c1)no[n+]2[O-])[C@H](CN1CCCC1)c1ccccc1", "EC50": "4.37 nM"}
{"substance-smiles": "CN(C(=O)CNC(=O)c1ccccc1)[C@H](CN1CCCC1)c1ccccc1", "EC50": "3.85 nM"}
{"substance-smiles": "CN(C(=O)CNC(=O)c1ccc(Cl)c(Cl)c1)[C@H](CN1CCCC1)c1ccccc1", "EC50": "2.25 nM"}

Below are some molecules; for each one, tell me its EC50.
1. COc1ccccc1C(=O)NCC(=O)N(C)[C@H](CN1CC[C@@H](O)C1)c1ccccc1
2. CN(C(=O)CNC(=O)c1ccc(Cl)c(Cl)c1)[C@H](CN1CC[C@@H](O)C1)c1ccccc1
3. CN(CC(=O)N(C)[C@H](CN1CC[C@@H](O)C1)c1ccccc1)C(=O)c1ccc(Cl)c(Cl)c1

1.98 nM
0.76 nM
41.4 nM
